Assayed System: T1, Anti-PSMA Fab
T1 construct: In the phage ELISA the PSMA Fab was biotinylated and captured on neutravidin coated plates; also called 006 PSMA Fab
Test: phage ELISA; biotinylated PSMA Fab on neutravidin plate, clonal phage supernatant, anti-M13 HRP detection;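 note: wells preincubated with PSMA antigen in blocking buffer or with blocking buffer only before clonal phage were added for a short incubation, then bound phage detected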
I'd appreciate it if you could supply Phage binding ELISA signal, Anti-PSMA Fab values for the items below.

GSHYCVPQWMCGGF [Phage-3858]
1.17

For each of the items listed, what is its Phage binding ELISA signal, Anti-PSMA Fab?
1. LSWECVPQWMCTGL [Phage-3867]
2. MGVECKPLWMCTGL [Phage-3865]

1. 1.16
2. 1.16

Entry NAGYCVPTWMCDGF [Phage-3864] has what Phage binding ELISA signal, Anti-PSMA Fab?
1.17
